Source of measurements: PubChem BioAssay

This section presents molecules with their documented z-score values.
Assay: JC-1 mitochondrial signal, unstimulated adipocytes – cell-based, JC-1 fluorescence, 3T3-L1 adipocytes, 24 h, 100 nL compound, profiling panel (AID 1168); also: test concentration not given here
Settings: JC-1 mitochondrial fluorescence, higher = more signal, called active from +8 up or from −8 down
Enter a number only.

# example entries with known answers
>  <molecule>
CCCCCCc1nc(Cc2cc(OC)c(OC)c(OC)c2)cc2c1[Si](C(C)C)(C(C)C)O[C@H]2c1ccccc1

>  <readout type>
z-score

>  <assay result>
-0.462

$$$$
>  <molecule>
Cc1ccc(S[C@]2(C(=O)NCC(F)(F)F)CC(=O)N(Cc3ccccc3C(F)(F)F)[C@@H]2c2ccc(CO)cc2)cc1

>  <readout type>
z-score

>  <assay result>
0.0107

$$$$
>  <molecule>
O=C1NC(=O)C2C1C=CC(C(O)c1ccc([N+](=O)[O-])cc1)N2Nc1ccccn1 (stereo not given)

>  <readout type>
z-score

>  <assay result>
-0.713

$$$$
>  <molecule>
[N-]=[N+]=NCc1ccccc1[C@@H]1OC(c2ccc(OCCCO)cc2)=N[C@]1(Cc1ccccc1N=[N+]=[N-])C(=O)O

>  <readout type>
z-score

>  <assay result>
-1.48

$$$$
>  <molecule>
COc1ccccc1CN1C(=O)c2ccccc2[C@](Cc2ccccc2I)(C(=O)NCC(C)C)[C@@H]1c1ccc(CO)cc1

>  <readout type>
z-score

>  <assay result>
-0.808

$$$$
>  <molecule>
C=CC[C@@]1(C(=O)OC)N=C(c2ccc(OCCCO)cc2)O[C@@H]1c1ccccc1N=[N+]=[N-]

>  <readout type>
z-score

>  <assay result>
0.645

$$$$

Q: So what does the record say about z-score for COCCOC(=O)N1C(=O)[C@@]2(c3cc(C#CCC(C(=O)OC)C(=O)OC)ccc31)[C@H](C(N)=O)[C@H]1C(=O)O[C@H](c3ccccc3)[C@H](c3ccccc3)N1[C@@H]2c1ccc(O)cc1 ?
Result: 2.05

Q: So what does the record say about z-score for O=C1O[C@@H](c2ccccc2)[C@@H](c2ccccc2)N2[C@@H](c3ccc(OCCO)cc3)[C@]3(C(=O)Nc4ccc(C#CCCO)cc43)[C@@H](C(=O)O)[C@H]12 ?
Result: -0.382

---

Experiment: small molecules captured by biotinylated probe aFGF2 – biochemical, small-molecule microarray, fluorescence 635/667, stem cell growth factor project, primary screen (AID 1067);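 also: measures binding of biotinylated aFGF2 protein to printed compounds on slides; z-score merges feature fluorescence and signal-to-noise across triplicate slides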
Conditions: higher = more signal
readout type: composite z-score
Enter a number only.

# example entries with known answers
>  <compound>
N#Cc1ccc(NN2C(C(O)C3CC=CCC3)C=CC3C(=O)N(c4ccccc4)C(=O)C32)cc1 (stereo not given)

>  <composite z-score>
-0.073

$$$$
>  <compound>
CC1CC/C=C\[C@H]2OC34C=CCN(C(C)(C)C)C(=O)[C@H]3N(CCCO)C(=O)[C@@H]4C2C(=O)O1 (stereo not given in full)

>  <composite z-score>
-0.0063

$$$$
>  <compound>
CN1C(=O)C2C=CC(C(O)c3ccc(-c4ccccc4)s3)N(NC(=O)OC(C)(C)C)C2C1=O (stereo not given)

>  <composite z-score>
-0.229

$$$$

Q: So what does the record say about composite z-score for CCCC#C[Si](O[C@H](CC)c1cn(Cc2ccccc2)nn1)(C(C)C)C(C)C ?
Result: 0.0252

Q: So what does the record say about composite z-score for CC(C)C(=C=CC[C@H](O)c1ccccc1OCCO)C[C@H](O)c1cc(Cl)cc(Cl)c1O ?
Result: -0.0266

---

Experiment: binders of probe aHhip on microarray, primary screen, stem cell growth factor project, biochemical, small-molecule microarray, fluorescence 635/667 (AID 1087);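 also: score merges spot fluorescence at 667nm with spot signal to noise ratio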
Conditions: higher = more signal
Use 0.07 as the dividing line for composite z-score, with the line itself on the true (1) side and lower values as false (0).

>  <molecule>
C=CC1c2cc(O)c(OC)cc2CCN1C (stereo not drawn)

>  <group>
false (0)

$$$$
>  <molecule>
O=C1O[C@@H](c2ccccc2)[C@@H](c2ccccc2)N2[C@@H](c3ccccc3OCCO)[C@]3(C(=O)Nc4ccc(C#CCCO)cc43)[C@@H](C(=O)NC[C@H](O)c3ccccc3)[C@H]12

>  <group>
true (1)

$$$$
>  <molecule>
CN1C(=O)C2C(C1=O)C1C=C(c3ccc(CO)cc3)C2C(C2CC2)N1C (stereo not drawn)

>  <group>
true (1)

$$$$
>  <molecule>
CCCCCC1=C2CNC(Cc3ccccc3)(C(=O)OC)C=C2C(C)C1=O (stereo not drawn)

>  <group>
true (1)

$$$$
>  <molecule>
C=C(CCCC)/C(=C/C[C@H](OC(=O)c1ccncc1)c1cccc(OCCO)c1)c1cnc2ccccc2c1

>  <group>
false (0)

$$$$
>  <molecule>
COc1ccc([Si](C)(C)[C@H]2[C@H](CCO)O[C@@]3(C(=O)N(Cc4ccc(NC(=O)[C@H](C)O)cc4)c4ccccc43)[C@@H]2C)cc1

>  <group>
false (0)

$$$$

Q: Determine whether this molecule has composite z-score no lower than 0.07: COC(=O)C(CC#Cc1ccc2c(c1)[C@]1(C(=O)N2)[C@H](C(=O)N2CCc3cc(OC)c(OC)cc3C2)[C@H]2C(=O)O[C@H](c3ccccc3)[C@H](c3ccccc3)N2[C@@H]1c1ccccc1OCCO)C(=O)OC
Result: false (0)

Q: Determine whether this molecule has composite z-score no lower than 0.07: COC(=O)[C@@]1(Cc2ccccc2)[C@H]2c3cc(C(=O)N(C)C)n(Cc4ccc(C(F)(F)F)nc4)c3C[C@H]2CN1C(=O)c1ccccc1
Result: false (0)

---

Assay: Pseudomonas biofilm growth suppression – PAO1 strain, BacTiter-Glo luminescence, LB-PBS, primary screen (AID 1144)
Conditions: P. aeruginosa PAO1 biofilm, 12 h, higher = more signal
Active and inactive are the calls of the source. No rule for the calls is given here.
This section presents compounds with their documented z-score values.

Q: So what does the record say about z-score for O=C1OCCC=C[C@H]2OC34C=CCN(c5ccc6ccccc6c5)C(=O)[C@H]3N(CCO)C(=O)[C@@H]4C12 (some centres not stated) ?
Result: -0.663 (inactive)

Q: So what does the record say about z-score for COCCCNC(=O)[C@@]1(Sc2ccc(C)cc2)CC(=O)N(Cc2ccccc2C(F)(F)F)[C@@H]1c1ccc(CO)cc1I ?
Result: 0.86 (inactive)

Q: So what does the record say about z-score for CC(C)NC(=O)[C@@H]1c2ccccc2C(=O)N(Cc2ccccc2C(F)(F)F)[C@H]1c1ccc(CO)cc1 ?
Result: -0.949 (inactive)

Q: So what does the record say about z-score for CCCN1C(=O)[C@@]2(c3ccc([N+](=O)[O-])cc3)CC(=O)N(CC34CC5CC(CC(C5)C3)C4)[C@@H]2c2ccc(CO)cc21 ?
Result: 0.312 (inactive)

Q: So what does the record say about z-score for O=C1[C@H]2C=C(I)[C@H](C[C@@H]2c2ccccc2)[C@@]12CO2 ?
Result: 0.686 (inactive)

Q: So what does the record say about z-score for CN1C(=O)C2C(C3CC3)C=C3CN(Cc4cccc(Cl)c4)[C@@H]([C@@H](O)Cc4ccccc4)C3C2C1=O (some centres not stated) ?
Result: -0.0257 (inactive)

Q: So what does the record say about z-score for O=C1C2C=CC(C(O)c3ccc([N+](=O)[O-])cc3)N(Nc3ccccc3F)C2C(=O)N1c1ccccc1 (configuration not stated) ?
Result: -0.242 (inactive)

---

Experiment: probe aShh binding to arrayed compounds – biochemical, biotinylated probe, 635/667 nm fluorescence, primary screen (AID 1114);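 also: probe is biotin-labelled aShh protein from a stem cell growth factor screen; measures binding of labelled protein to compounds printed on the slide; score merges feature fluorescence at 667 nm with signal-to-noise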
Settings: small-molecule microarray, higher = more signal
Use 0.1 as the dividing line for composite z-score, with the line itself on the yes (1) side and lower values as no (0).

Worked set:
>  <molecule>
CN1C(=O)[C@@H]2[C@@H](CC(COc3ccccc3)=C3[C@@H](CCc4ccccc4)OB(O)C[C@@H]32)C1=O

>  <group>
yes (1)

$$$$
>  <molecule>
CN(C)CCCC[C@@H]1NC(=O)[C@@H]2C[C@H](C(=O)NCCCCCCNC(=O)CS)[C@H](c3ccc(O)cc3)N2C1=O

>  <group>
no (0)

$$$$
>  <molecule>
CCC(CC)C(O)C1C=CC2C(=O)N(c3ccccc3)C(=O)C2N1Nc1ccccc1F (stereo not drawn)

>  <group>
no (0)

$$$$
>  <molecule>
CCCCC(=C=CC[C@H](O)c1ccc(CO)o1)CCO

>  <group>
yes (1)

$$$$

Q: Determine whether this molecule has composite z-score no lower than 0.1: C=C(C)[C@@H]1CC=C(C(O)C2C=CC3C(=O)N(C)C(=O)C3N2Nc2ccc([N+](=O)[O-])cc2[N+](=O)[O-])CC1 (stereo partly drawn)
Result: yes (1)

Q: Determine whether this molecule has composite z-score no lower than 0.1: CN(C)C(=O)[C@]1(Cc2ccccc2)N=C(c2ccc(OCCCO)cc2)O[C@@H]1c1ccccc1CN=[N+]=[N-]
Result: yes (1)

Q: Determine whether this molecule has composite z-score no lower than 0.1: CCOC(=O)C1=CC[C@@H](c2ccc(OC)cc2)N(S(=O)(=O)c2ccc(C)cc2)[C@H]1c1ccc(C)cc1
Result: yes (1)

Q: Determine whether this molecule has composite z-score no lower than 0.1: C=CCOC(=O)[C@H]1[C@@H]2C(=O)O[C@@H](c3ccccc3)[C@@H](c3ccccc3)N2[C@@H](c2ccc(OCCOC(=O)[C@H]3C[C@H]4C(=O)N[C@@H](CC(C)C)C(=O)N4[C@H]3c3ccc(O)cc3)cc2)[C@]12C(=O)Nc1ccccc12
Result: no (0)
